I'd appreciate it if you could supply growth inhibition values for the items below.
# testDetails: NCI Yeast Anticancer Drug Screen. Data for the rad50 strain (AID 155);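 note: 0% = growth of vehicle-only cultures of the same strain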
# assaySetup: S. cerevisiae rad50 strain growth inhibition; at 50.0 µM; hits give high values
About 79,000 compounds went through this panel and 15% of them were active in at least one assay; those are over-represented in the sample as a whole. The source made the active and inactive calls. Cut-off read from the data, not from the text of the source: active = growth inhibition above about 70%; inactive = the rest.

// field: growth inhibition; key: COC(=O)C1CCCCC1C(=O)Nc1ccccc1 (stereo not drawn) ; value = 20.8% (inactive)

Lab book: growth inhibition of O=C1c2ccccc2-c2cc3ccccc3c(=O)n21 noted as 91.7% (active)

response.value for Cc1cccc(C)c1NC(=O)CCC(=O)C(C)C(=O)c1ccc(O)cc1 (stereo not drawn) (field: growth inhibition) = 57.6% (inactive)

Notebook: C[n+]1c(/C=C/c2ccc(/C=N/NC(=O)c3ccc(C(=O)N/N=C/c4ccc(/C=C/c5cn6ccccc6[n+]5C)cc4)cc3)cc2)cn2ccccc21 , growth inhibition read as 88.7% (active)

Record summary for COc1ccc(/C=C2\SC(=S)N(/C=C3\C(=O)N(c4ccccc4)N=C3C)C2=O)cc1OC : reported growth inhibition = 63.4% (inactive)

Sample O=[N+]([O-])[O][Sn]([O][Sn]([O][N+](=O)[O-])([c]1ccccc1)[c]1ccccc1)([c]1ccccc1)[c]1ccccc1 ; growth inhibition observed: 65.2% (inactive)

# growth inhibition (molecule: COc1ccc2nc(CCc3ccccc3)ccc2c1 ) is 69.3% (inactive)

Input ClCCCOc1c(Cl)cc(Cl)cc1Cl . Output growth inhibition: -7.15% (inactive)

The molecule listed as CCCCCCCCCCCNC=O has a reported growth inhibition of 89.9% (active)

Recorded growth inhibition (molecule c1ccc2c(c1)N=C1CCCC3CCCC123 (stereo not drawn) ): 91% (active)

Query O=C1c2ccccc2N2OC3(N4CCCC4)CCCCC3C12c1ccccc1 (stereo not drawn) yields growth inhibition of 84.6% (active)

Looking up CCCCN(CCCC)c1ccc(N=Nc2ccc(S(=O)(=O)O)cc2)cc1 , I found its growth inhibition recorded as 87.7% (active)

Entry Cc1cc(C)c(S(=O)(=O)c2ccc(Cl)cc2)c(C)c1 ; growth inhibition = 62.4% (inactive)

Lab note: measured growth inhibition of O=C1c2cccc3cccc(c23)C(=O)N1CCNCCN1C(=O)c2cccc3cccc(c23)C1=O was 86.1% (active)

The molecule CC1=NN(C(=O)c2ccccc2O)C(=O)/C1=C/c1ccco1 showed growth inhibition equal to 87.5% (active)

GET /value?item= Nc1ccc(N=Nc2ccc(-c3ccc(O)cc3)cc2)c2ccc(S(=O)(=O)O)cc12 &field=growth inhibition returns 82.9% (active)

The reported growth inhibition of the molecule O=C1CCC(Cc2ccccc2)CN1 (stereo not drawn) was 7.1% (inactive)

Recorded growth inhibition (molecule O=c1c2ccccc2nc(-c2ccc(Cl)cc2)n1O ): 97% (active)
